Data provenance is ChEMBL document CHEMBL5226341.

assay: AUC (0 to t) in Sprague-Dawley rat at 1 mg/kg, iv measured for 24 hrs by LC-MS/MS analysis; format: ADME, organism-based; set-up: dose 1 mg/kg, time 24 hrs, route iv; conditions: in vivo
observed property: AUC(0-t) at 24 h (ng·h/mL)
Give the quantity in ng·h/mL, number only.

Note to self: AUC(0-t) at 24 h recorded for CCN1CCN(c2ccc(C(=O)Nc3cc(-c4ccc5ncn(Cc6c(Cl)cccc6Cl)c5c4)[nH]n3)cc2)CC1 was 391

###

assay: Antiproliferative activity against mouse BaF3 cells assessed as reduction in cell viability measured after 72 hrs by CellTiterGlo luminescent assay; format: toxicity, cell-based
observed property: IC50 at 72 h (µM)
Give the quantity in µM, number only.

Note to self: IC50 at 72 h recorded for CCN1CCN(c2ccc(C(=O)Nc3cc(-c4ccc5ncn(Cc6c(Cl)cccc6Cl)c5c4)[nH]n3)cc2)CC1 was 4.09
